Target: α4 with β2S113R nAChR (Homo sapiens, UniProt P17787+P43681, S138R)
Sequence (P43681 29-627 limits assumed): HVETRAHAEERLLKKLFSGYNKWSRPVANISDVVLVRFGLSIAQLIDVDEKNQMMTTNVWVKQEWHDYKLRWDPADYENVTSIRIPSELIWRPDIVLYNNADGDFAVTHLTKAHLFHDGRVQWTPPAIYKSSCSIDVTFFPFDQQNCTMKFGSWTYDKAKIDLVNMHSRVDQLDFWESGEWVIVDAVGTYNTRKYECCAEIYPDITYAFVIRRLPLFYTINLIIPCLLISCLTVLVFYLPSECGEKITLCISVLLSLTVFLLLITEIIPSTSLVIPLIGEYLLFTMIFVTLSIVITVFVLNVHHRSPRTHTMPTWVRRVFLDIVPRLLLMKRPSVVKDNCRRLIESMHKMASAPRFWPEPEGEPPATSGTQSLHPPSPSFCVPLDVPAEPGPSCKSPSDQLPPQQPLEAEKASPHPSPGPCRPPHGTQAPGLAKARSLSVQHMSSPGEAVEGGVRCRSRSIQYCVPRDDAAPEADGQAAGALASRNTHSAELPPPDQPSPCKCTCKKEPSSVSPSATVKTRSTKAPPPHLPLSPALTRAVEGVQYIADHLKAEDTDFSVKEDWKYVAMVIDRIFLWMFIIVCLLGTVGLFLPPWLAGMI
Sequence (P17787 26-502 S138R): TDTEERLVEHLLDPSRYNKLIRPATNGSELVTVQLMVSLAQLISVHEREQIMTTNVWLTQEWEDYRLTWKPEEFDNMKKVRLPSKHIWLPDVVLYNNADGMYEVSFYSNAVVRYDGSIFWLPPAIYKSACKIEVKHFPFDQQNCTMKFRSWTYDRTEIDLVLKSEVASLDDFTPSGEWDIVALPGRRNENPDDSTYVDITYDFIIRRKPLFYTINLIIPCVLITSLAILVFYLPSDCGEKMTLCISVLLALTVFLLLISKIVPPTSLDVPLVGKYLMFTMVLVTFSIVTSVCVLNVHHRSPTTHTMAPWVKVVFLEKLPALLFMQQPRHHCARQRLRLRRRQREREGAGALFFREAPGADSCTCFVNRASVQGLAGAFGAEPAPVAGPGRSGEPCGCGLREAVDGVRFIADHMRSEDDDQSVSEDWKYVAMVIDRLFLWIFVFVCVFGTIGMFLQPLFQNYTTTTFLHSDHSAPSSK
Protocol: Two-electrode voltage clamp of receptors expressed in Xenopus oocytes
Type: cell-based
Measurement Context: read-out: EC50 of activation; 7 oocytes
Observed Property: pEC50
# pEC50: negative log10 of molar concentration; output just the value

I am curious: what pEC50 value has been reported for Cl.Cl.Ic1cncc(OC[C@@H]2CCN2)c1 [5I-A-85380, 5-iodo-A-85380 dihydrochloride] ?
7.52

* * *

Target: α4β2F119Q, α4β2S113R and wild-type (WT) hα4β2 receptors
Measurement Context: read-out: [3H]epibatidine binding affinities; range over α4β2F119Q, α4β2S113R and WT hα4β2 transiently expressed in HEK 293 cells
Observed Property: Kd

Could you share which Kd value was measured for Clc1ccc(C2CC3CCC2N3)cn1 (stereo not shown) [[^3H]epibatidine] ?
0.4 to 0.7 nM

Taken from paper PMC2744590.
